assayed-target: T. thermophilus complex I (quinone site, Q-site) (Thermus thermophilus, UniProt Q56218+Q56220+Q60019)
Construct: gene nqo4; native intact complex purified from T. thermophilus HB8 membranes in TDM; 16 subunits, 550 kDa; for crystals recombinant His-tagged Nqo16 (E. coli) was added; activity preparation has sub-stoichiometric Nqo16; with NADH-quinone oxidoreductase subunit 1; NADH-quinone oxidoreductase subunit 2; NADH-quinone oxidoreductase subunit 3; NADH-quinone oxidoreductase subunit 5; NADH-quinone oxidoreductase subunit 7; NADH-quinone oxidoreductase subunit 9; NADH-quinone oxidoreductase subunit 10; NADH-quinone oxidoreductase subunit 11; NADH-quinone oxidoreductase subunit 12; NADH-quinone oxidoreductase subunit 13; NADH-quinone oxidoreductase subunit 14; NADH-quinone oxidoreductase subunit 15; NADH-quinone oxidoreductase subunit 16
Sequence (Q56220 whole entry): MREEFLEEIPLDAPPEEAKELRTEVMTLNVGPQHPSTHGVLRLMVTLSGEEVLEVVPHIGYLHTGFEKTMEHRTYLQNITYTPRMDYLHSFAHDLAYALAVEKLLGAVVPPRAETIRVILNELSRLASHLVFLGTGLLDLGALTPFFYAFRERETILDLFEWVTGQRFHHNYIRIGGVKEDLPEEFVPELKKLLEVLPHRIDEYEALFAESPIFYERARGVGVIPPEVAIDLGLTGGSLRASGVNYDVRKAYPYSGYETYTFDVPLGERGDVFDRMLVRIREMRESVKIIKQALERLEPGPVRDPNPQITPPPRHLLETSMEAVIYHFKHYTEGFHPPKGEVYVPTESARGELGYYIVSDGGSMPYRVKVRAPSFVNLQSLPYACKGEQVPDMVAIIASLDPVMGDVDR
Sequence (Q56218 2-181): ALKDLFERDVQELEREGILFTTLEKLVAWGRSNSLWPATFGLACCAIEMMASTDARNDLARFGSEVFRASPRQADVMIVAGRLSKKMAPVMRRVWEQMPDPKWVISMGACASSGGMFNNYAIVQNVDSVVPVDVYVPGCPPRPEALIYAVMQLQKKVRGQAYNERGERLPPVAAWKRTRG
Sequence (Q60019 whole entry): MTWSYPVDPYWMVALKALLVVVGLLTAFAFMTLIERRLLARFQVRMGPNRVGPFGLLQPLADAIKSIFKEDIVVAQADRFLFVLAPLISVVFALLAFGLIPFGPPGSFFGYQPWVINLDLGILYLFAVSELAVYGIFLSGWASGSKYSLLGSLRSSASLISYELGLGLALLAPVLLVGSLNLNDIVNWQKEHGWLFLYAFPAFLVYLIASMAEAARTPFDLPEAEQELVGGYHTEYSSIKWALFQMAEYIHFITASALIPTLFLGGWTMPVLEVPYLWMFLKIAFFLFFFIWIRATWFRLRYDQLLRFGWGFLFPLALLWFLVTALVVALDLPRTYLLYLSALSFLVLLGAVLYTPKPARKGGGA
Sequence (Q56222 whole entry partner): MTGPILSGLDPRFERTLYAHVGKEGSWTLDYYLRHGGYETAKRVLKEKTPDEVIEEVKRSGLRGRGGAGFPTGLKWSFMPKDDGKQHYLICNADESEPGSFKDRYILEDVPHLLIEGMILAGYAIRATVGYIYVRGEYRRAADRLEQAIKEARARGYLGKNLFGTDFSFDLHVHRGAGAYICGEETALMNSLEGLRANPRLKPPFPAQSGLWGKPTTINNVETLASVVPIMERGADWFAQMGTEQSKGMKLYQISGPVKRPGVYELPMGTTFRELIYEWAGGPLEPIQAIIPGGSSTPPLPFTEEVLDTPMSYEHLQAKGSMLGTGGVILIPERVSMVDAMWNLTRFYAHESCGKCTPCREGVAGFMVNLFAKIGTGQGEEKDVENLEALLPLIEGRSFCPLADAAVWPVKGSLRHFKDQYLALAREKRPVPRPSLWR
experiment: biochemical
Set-up: NADH:decylubiquinone oxidoreductase activity of purified complex I, NADH absorbance at 340 nm, 50 °C
conditions-used: read-out: IC50 (µM in cell)
Each entry below carries its reported IC50.
Give your result in µM as a bare value.

COc1cc(CNC(=O)CCCC/C=C/C(C)C)ccc1O : 197

Shifting focus to the compound that follows.
Prompt: Tell me its IC50 given C/C=C(C)/C=C/C=C/[C@H](OC)[C@@H](C)[C@@H](OC)[C@@H](C)CCc1oc2c(O)c(OC)cc(OC)c2c(=O)c1C as the entry.
Response: 60
